# experiment: protein stability index of a GFP-peptide fusion (GPS, HEK-293T) (PSI 1-6); higher = more stable;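 further: 24-mer peptide tiles fused after GFP, lentivirally expressed, FACS-sorted into six equal bins by GFP/DsRed ratio, decoded by Illumina sequencing, PSI is the read-weighted mean bin number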
# assay_conditions: treatment: DMSO; c terminus: a fixed tail appended
observation_type: protein stability index

- residue_sequence: "FVLQAIGIPGWGFSGWISALVVPK [SCAMP3]"
  endpoint_value: 3.08
- residue_sequence: "QSCLLVIFATKPHVLPAVLAEVAP [PYCR3]"
  endpoint_value: 3.09
- residue_sequence: "SCCFDPDSQRVASVSLDRCIKIWD [WDR88]"
  endpoint_value: 2.44
- residue_sequence: "LSDEDDGFVDLLDGENLKNEEETP [CDC25A]"
  endpoint_value: 5.48
- residue_sequence: "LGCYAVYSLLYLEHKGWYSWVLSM [CLPTM1]"
  endpoint_value: 3.04
- residue_sequence: "MEKYEKLAKTGEGSYGVVFKCRNK [CDKL4]"
  endpoint_value: 3.78
- residue_sequence: "RPGHLPGLLLGSHGLLGSPVRAAA [CDC25B]"
  endpoint_value: 3.31
- residue_sequence: "HNDRVQALSYAQHTRQLISCGGDG [WDFY2]"
  endpoint_value: 2.77
- residue_sequence: "GDPEEIRMLIHKTEDVNTLDSEKR [ANKRD44]"
  endpoint_value: 5.51
- residue_sequence: "LAFVGGLPLAYQQTSAFARQPRDE [TMEM175]"
  endpoint_value: 3
- residue_sequence: "QAVCGKCSSKRSSYPVMGFEFQVR [WDFY1]"
  endpoint_value: 2.16
- residue_sequence: "VFPAPVVGSGGATSGKLLLEADEL [ZBTB22]"
  endpoint_value: 4.93
- residue_sequence: "QVLRNNPDALSDVGEVPYWVLEPV [ELOA2]"
  endpoint_value: 2.92

* * *

# experiment: protein stability index of a GFP-peptide fusion (GPS, HEK-293T) (PSI 1-6); higher = more stable
# assay_conditions: treatment: MLN4924 1 uM, 8 h; c terminus: a fixed tail appended
Listed here are sequences together with their documented protein stability index.
observation_type: protein stability index

- residue_sequence: "DLTVGRAPTADDDDDDHDDHEDND [NOL4L]"
  endpoint_value: 5.5
- residue_sequence: "TALPPMNEARHNFGIVEIDGMLYI [GAN]"
  endpoint_value: 2.08
- residue_sequence: "YGNGMRKSPEMPVILEVSLEGSHD [RTP4]"
  endpoint_value: 3.97
- residue_sequence: "WKITIYDQENFQGKRMEFTSSCPN [CRYBA1]"
  endpoint_value: 2.15
- residue_sequence: "RDYPSSRDTRDYAPPPRDYTYRDY [RBMX]"
  endpoint_value: 3.08
- residue_sequence: "ERAKMSSSEVGPFVSKIRAVINDI [AUH]"
  endpoint_value: 2.86
- residue_sequence: "SCLRRRRHPPKVGDDSDLSEGFES [SMG5]"
  endpoint_value: 4.93
- residue_sequence: "DSHYGTKGLKKVVHETPAASKTVF [BTBD1]"
  endpoint_value: 4.14
- residue_sequence: "RKMLEQGYSPNGRDANGWTLLHFS [ASB7]"
  endpoint_value: 2.49
- residue_sequence: "VCYTACATLKGPDSHYGTKGLKKV [BTBD1]"
  endpoint_value: 3.21
- residue_sequence: "KVSYLKQKGLGGAMVWALDLDDFA [CHIT1]"
  endpoint_value: 2.36
- residue_sequence: "KEVFASRISNPSDDNSCEDLEEER [PCMTD2]"
  endpoint_value: 5.41
- residue_sequence: "GKEVVKQLEEGLKDTDLARVRRFQ [M1AP]"
  endpoint_value: 4.62

Hey, just so you know, these numbers are from the supplement of paper PMC10567573.
